# experimental_target: PAR2 (HT-29 cells, trypsin activation) (Homo sapiens)
# Construct: host or cells: HT-29 cells
# Sequence (P55085 26-397): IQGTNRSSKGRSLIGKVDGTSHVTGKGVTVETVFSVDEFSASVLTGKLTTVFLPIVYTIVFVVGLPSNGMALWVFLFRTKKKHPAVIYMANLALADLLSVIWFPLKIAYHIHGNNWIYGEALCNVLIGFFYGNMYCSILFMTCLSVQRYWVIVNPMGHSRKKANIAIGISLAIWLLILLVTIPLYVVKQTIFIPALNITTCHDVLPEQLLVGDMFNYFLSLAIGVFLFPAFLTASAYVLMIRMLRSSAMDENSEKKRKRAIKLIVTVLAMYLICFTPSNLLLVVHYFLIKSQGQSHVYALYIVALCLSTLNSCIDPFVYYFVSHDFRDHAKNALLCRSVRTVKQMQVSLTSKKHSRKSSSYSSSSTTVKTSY
# method_notes: Ca FLIPR TETRA assay, ANTAGONIST mode, stimulation with 3.1 U/mL trypsin
# Format: cell-based
# experimental_parameters: HT-29 cells, antagonist mode, 3.1 U/mL trypsin
measure: log10(IC50) (log10 of the value in µM)
Log scale reminder: IC50 in µM, then log10 taken.

Below: 10 compounds and their reported log10(IC50).
- CC1(C)C(=O)NCCN1C(=O)c1cn2nc(-c3ccc(F)cc3)cc(-c3cccnc3)c2n1: -0.21
- CC1(C)C(=O)NCCN1C(=O)c1cn2nc(-c3ccc(F)cc3)cc(-c3ccsc3)c2n1: -1.30
- CC(C)(C)c1cc(-c2ccc(F)cc2)nn2cc(C(=O)N3CCN(C(=O)CCC(=O)O)CC3(C)C)nc12: -2.03
- CC(C)(C)c1cc(-c2ccc(F)cc2)nn2cc(C(=O)N3CCN(C(=O)/C=C/C(=O)O)CC3(C)C)nc12: -1.36
- CC(C)(C)c1cc(-c2ccc(F)cc2)nn2cc(C(=O)N3CN(Cc4ccccc4)C(=O)C3(C)C)nc12: -1.38
- CC(C)(CC(=O)O)C(=O)N1CCN(C(=O)c2cn3nc(-c4ccc(F)cc4)cc(C(C)(C)C)c3n2)C(C)(C)C1: -2.48
- CC(C)(C)c1cc(-c2ccc(Cl)cc2)nn2cc(C(=O)N3CCN(C(=O)[C@H]4C[C@H](C(=O)O)C4)CC3(C)C)nc12: -2.66
- CC(C)(C)c1cc(-c2ccc(F)cc2)nn2cc(C(=O)N3CCN(C(=O)CCC#N)CC3(C)C)nc12: -2.29
- CC(C)(C)c1cc(-c2ccc(F)cc2)nn2cc(C(=O)N3CCN(C(=O)C4(C(=O)O)CC4)CC3(C)C)nc12: -0.89
- CC(C)(C)c1cc(-c2ccc(F)cc2)nn2cc(C(=O)N3CN(C(C)(C)C)C(=O)C3(C)C)nc12: -0.71

Note: attention shifts to another entry.
// lookup log10(IC50) for CC(C)(C)c1cc(-c2ccc(F)cc2)nn2cc(C(=O)N3CCN(C(=O)[C@H]4C[C@@H](C(=O)O)C4)CC3(C)C)nc12 -2.11
